# SYSTEM NAME: human TLR7 (Homo sapiens, UniProt Q9NYK1)
# ASSAY NAME: Human TLR7 agonist activity assay (hTLR7 reporter, HEK-Blue TLR7 cells, SEAP)
# CONDITIONS: HEK-Blue TLR7 cells with SEAP reporter, 18 h treatment; average where assay performed multiple times
REPORTED PROPERTY: pEC50
# reply with the number alone; pEC50 is -log10 of concentration in mol/L

# MOLECULE, SYSTEM NAME, pEC50
records = [
    ("CCC[C@@H](CCO)Nc1nc(N)nc2cnn(Cc3ccc(CNC4[C@H]5COC[C@@H]45)cc3OC)c12 (some centres unmarked)", "human TLR7 (Homo sapiens, UniProt Q9NYK1)", 8.28),
    ("CCCCNc1nc(N)nc2cnn(Cc3ccc(CN4C[C@H]5CNC[C@H]5C4)cc3OC)c12 [Compound 143]", "human TLR7 (Homo sapiens, UniProt Q9NYK1)", 7.21),
    ("CCCCNc1nc(N)nc2cnn(Cc3ccc(C(=O)N4C[C@H]5CN(C)C[C@H]5C4)cc3OC(F)F)c12", "human TLR7 (Homo sapiens, UniProt Q9NYK1)", 6.76),
]

Now take the following molecule into account.
Entry `CCCCNc1nc(N)nc2cnn(Cc3ccc(CN4C5CNCC4C5)cc3OC)c12` under human TLR7 (Homo sapiens, UniProt Q9NYK1) had pEC50 of 7.05

---

# SYSTEM NAME: human TLR7 (Homo sapiens, UniProt Q9NYK1)
# Construct: host or cells: HEK-Blue TLR7 cells (engineered human embryonic kidney cells)
# Sequence (Q9NYK1 27-1049): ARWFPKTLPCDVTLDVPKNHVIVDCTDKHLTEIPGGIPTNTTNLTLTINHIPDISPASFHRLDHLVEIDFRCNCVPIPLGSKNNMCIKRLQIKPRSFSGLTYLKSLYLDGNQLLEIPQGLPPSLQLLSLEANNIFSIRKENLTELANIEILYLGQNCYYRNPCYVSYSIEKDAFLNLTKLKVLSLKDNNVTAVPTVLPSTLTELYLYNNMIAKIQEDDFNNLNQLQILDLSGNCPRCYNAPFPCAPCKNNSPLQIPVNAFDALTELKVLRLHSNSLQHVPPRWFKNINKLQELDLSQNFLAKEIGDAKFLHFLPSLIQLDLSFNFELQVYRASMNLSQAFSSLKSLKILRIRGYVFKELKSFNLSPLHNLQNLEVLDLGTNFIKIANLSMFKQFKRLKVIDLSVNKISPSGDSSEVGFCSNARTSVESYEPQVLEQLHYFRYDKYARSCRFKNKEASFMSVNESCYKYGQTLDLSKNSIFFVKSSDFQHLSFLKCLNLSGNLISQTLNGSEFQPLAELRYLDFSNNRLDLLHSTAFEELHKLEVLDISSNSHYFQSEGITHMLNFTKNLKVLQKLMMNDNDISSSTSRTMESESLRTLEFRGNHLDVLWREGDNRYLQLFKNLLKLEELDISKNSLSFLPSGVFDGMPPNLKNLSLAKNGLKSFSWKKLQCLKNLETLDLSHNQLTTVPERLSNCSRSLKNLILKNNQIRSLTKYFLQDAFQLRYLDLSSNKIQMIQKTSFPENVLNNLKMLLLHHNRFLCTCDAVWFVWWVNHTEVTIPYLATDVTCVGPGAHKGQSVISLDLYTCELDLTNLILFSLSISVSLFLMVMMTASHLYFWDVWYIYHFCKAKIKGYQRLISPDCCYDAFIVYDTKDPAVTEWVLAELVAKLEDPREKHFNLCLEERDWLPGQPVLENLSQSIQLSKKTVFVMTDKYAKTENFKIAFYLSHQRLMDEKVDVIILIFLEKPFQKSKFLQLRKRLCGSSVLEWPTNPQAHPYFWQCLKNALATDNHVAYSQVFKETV
# ASSAY NAME: Human TLR7 agonist activity assay (hTLR7 reporter, HEK-Blue TLR7 cells, SEAP)
# Type: cell-based
# CONDITIONS: HEK-Blue TLR7 cells with SEAP reporter, 18 h treatment; average where assay performed multiple times
REPORTED PROPERTY: pEC50
Just the number, please; pEC50 means minus log10 of the concentration in mol/L.

As a guide, the following entries are already answered.
# COMPOUND, VALUE
rows = [
    ("CCCCNc1nc(N)nc2cnn(Cc3ccc(CN4C[C@H]5CN(CCO)C[C@H]5C4)cc3OC)c12", 7.71),
    ("COc1cc(CN2C[C@@H]3C[C@H]2CN3CCO)ccc1Cn1nc(C)c2nc(N)nc(NCc3noc(C)n3)c21", 5.91),
    ("COc1cc(CN2C[C@H]3CNC[C@H]3C2)ccc1Cn1ncc2nc(N)nc(NCC3CC(C4CC4)C3)c21 (some centres unmarked)", 7.65),
    ("CCC[C@@H](CCO)Nc1nc(N)nc2cnn(Cc3cnc(CN4C[C@H]5C[C@@H]4CN5CCO)cc3OC)c12", 6.15),
    ("CCC[C@@H](CCO)Nc1nc(N)nc2cnn(Cc3cnc(CN4C[C@@H]5C[C@H]4CN5)cc3OC)c12", 6.45),
]

Memo: `CCCCNc1nc(N)nc2c(C)nn(Cc3ccc(C(=O)N4C[C@H]5CN(C)C[C@H]5C4)cc3OC)c12` , reported pEC50: 7.10

Query `COc1cc(CN2C[C@H]3C[C@@H]2CN3C)ccc1Cn1nc(C)c2nc(N)nc(NCc3cc(C)on3)c21` yields pEC50 of 7.13

In plain terms, COc1cc(CN2C[C@@H]3C[C@H]2CN3)ccc1Cn1ncc2nc(N)nc(NCC3CC(C4CC4)C3)c21 (some centres unmarked) has a documented pEC50 of 7.52

Measured pEC50, `CCC[C@@H](CCO)Nc1nc(N)nc2cnn(Cc3ccc(CN4C[C@@H]5OCC[C@@H]54)cc3OC)c12` : 8.66

Measured pEC50 of `CCCCNc1nc(N)nc2cnn(Cc3ccc(CN4C[C@H]5C[C@@H]4CN5C)cc3OC)c12` : 7.68
